Can you tell me Kd for the items I'm about to list?
Target: T1, human CD86-murine Ig fusion protein (human)
T1 construct: Bought (Ancell #509-820); also called hCD86-mIg
T1 chain: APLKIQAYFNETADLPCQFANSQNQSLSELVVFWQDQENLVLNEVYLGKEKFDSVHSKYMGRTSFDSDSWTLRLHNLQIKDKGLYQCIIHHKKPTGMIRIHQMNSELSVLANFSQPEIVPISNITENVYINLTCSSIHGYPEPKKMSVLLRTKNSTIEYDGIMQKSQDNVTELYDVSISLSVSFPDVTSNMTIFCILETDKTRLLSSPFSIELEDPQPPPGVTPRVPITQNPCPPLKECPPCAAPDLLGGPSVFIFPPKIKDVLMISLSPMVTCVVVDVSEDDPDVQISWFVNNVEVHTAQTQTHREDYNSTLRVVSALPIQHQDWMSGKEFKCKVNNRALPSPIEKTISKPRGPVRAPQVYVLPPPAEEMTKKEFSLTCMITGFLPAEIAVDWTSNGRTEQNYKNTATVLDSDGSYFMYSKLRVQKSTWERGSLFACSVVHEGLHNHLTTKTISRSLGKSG
Test: SPR Biacore, hCD86-mIg captured

// each listed binder needs a value for Kd
1. D3-75-IgG2 (Fc fusion) MHVAQPAVVLASSRGIASFVCEYESPGKANEVRVTVLRQADSQVTEVCAMTYMKENELTFLDDPSCTGTFSGNQVNLTIQGLRAMDTGLYICKVELMYPPPYYLGIGNGTQIYVIDPEPCPDSDERKCCVECPPCPAPPVAGPSVFLFPPKPKDTLMISRTPEVTCVVVDVSHEDPEVQFNWYVDGVEVHNAKTKPREEQFNSTFRVVSVLTVVHQDWLNGKEYKCKVSNKGLPAPIEKTISKTKGQPREPQVYTLPPSREEMTKNQVSLTCLVKGFYPSDIAVEWESNGQPENNYKTTPPMLDSDGSFFLYSKLTVDKSRWQQGNVFSCSVMHEALHNHYTQKSLSLSPG
2. D3-17-IgG2 (Fc fusion) MHVAQPAVVLASSRGIASFVCEYESPGKANEIRVTVLRQADSQVTEVCAMTYMKGDELTFLDDPSCTGTFSGNQVNLTIQGLRAMDTGLYICKVELMYPPPYYLGIGNGTQIYVIDPEPCPDSDERKCCVECPPCPAPPVAGPSVFLFPPKPKDTLMISRTPEVTCVVVDVSHEDPEVQFNWYVDGVEVHNAKTKPREEQFNSTFRVVSVLTVVHQDWLNGKEYKCKVSNKGLPAPIEKTISKTKGQPREPQVYTLPPSREEMTKNQVSLTCLVKGFYPSDIAVEWESNGQPENNYKTTPPMLDSDGSFFLYSKLTVDKSRWQQGNVFSCSVMHEALHNHYTQKSLSLSPG

Marked response:
["< 0.131 nM", "< 0.131 nM"]
